Listing of recorded growth by entry.
System: SF-268 CNS
method: NCI-60 one-dose screen, 48 h (100 = growth as untreated, 0 = no growth, -100 = all killed)
condition.info: 10 µM unless noted
Compounds without any hit were thinned out: in the full panel of roughly 83,000, 20% have a hit.
assay.readout: growth (%)

compound	uom	val
COc1cc2ncnc(-n3ncc4cc(NC(=O)Nc5ccc(Cl)c(C)c5)ccc43)c2cc1OC	%	102
Cc1ccc(NCc2cn(-c3ccc(C(=O)O)cc3)nc2-c2ccc(C(=O)O)cc2)cc1	%	92.8
CC(=O)Nc1nc(C)c(C(=O)NN)s1	%	95.2
COC(=O)C(C(=O)OC)C(Br)C(Br)C(Br)c1ccccc1 (stereo unspecified)	%	99.2
COc1ccc2c(c1)/C(=C/c1c(-c3cc(OC)c(OC)c(OC)c3)nc3sccn13)C(=O)N2	%	107
O=C(Nc1ccc(-n2cc(-c3ccncc3)c(-c3ccc(Cl)c(O)c3)n2)cc1)c1cc(C(F)(F)F)cc(C(F)(F)F)c1	%	61.8

---

Test system: OVCAR-3 ovarian
method: NCI-60 one-dose screen, 48 h (100 = growth as untreated, 0 = no growth, -100 = all killed)
condition.info: 10 µM unless noted
The panel holds about 83,000 compounds, 20% with a hit somewhere; the sample as a whole holds those more often. The source made the active and inactive calls. Rule for the calls: active = growth percent below 10; inactive = the rest.
Listing of recorded growth by entry.

molecule	growth
CCCCCCCCc1ccc(CCC(N)(CO)CO)cc1	-47.9% (active)
CCOC1=C(Cl)C(=O)C(OCC)=C(Cl)C1=O	105% (inactive)
CCN(CC)CCNc1ncnc2c1cnn2-c1ccc(Cl)cc1	63.1% (inactive)
COc1ccc(CN2C(=O)/C(=C\C(=O)c3ccc(OCCN4CCCCC4)cc3)c3ccccc32)cc1	44.3% (inactive)
CC(=O)NCCN	113% (inactive)
NNC(=S)N1N=C(c2cc3ccccc3o2)CC1c1c[nH]c2ccccc12 (stereo unspecified)	20% (inactive)
Cc1ccc(C(C)C)c(OCc2ccc(C(=O)N/N=C/c3cccc(O)c3O)cc2)c1	20.4% (inactive)
CC(C)C(=O)c1ccc(Cl)s1	106% (inactive)
N#Cc1c(N)nc(Nc2nc3ccccc3[nH]2)nc1-c1ccc(Cl)cc1	127% (inactive)
CC(=O)N1N=C(c2ccc(Cl)cc2)CC1c1cn(-c2ccccc2)nc1-c1ccc([N+](=O)[O-])cc1 (stereo unspecified)	106% (inactive)
CCn1cnc(C[C@H](NC(=O)[C@@H](NC(=O)Nc2cc(C(F)(F)F)cc(C(F)(F)F)c2)C(C)(C)C)C(=O)OC)c1	-96.5% [100 µM] (active)

---

Listing of recorded growth by entry.
Test system: HCT-15 colon
method: NCI-60 one-dose screen, 48 h (100 = growth as untreated, 0 = no growth, -100 = all killed)
condition.info: 10 µM unless noted
This is part of a sample that, as a whole, favours compounds with a hit. Of some 83,000 tested, about 20% had one in any assay.
assay.readout: growth (%)

compound	subject.of.test	assay.readout	val
C=C1CCC2C3(C)COC(c4ccccc4)OC3CCC2(C)C1C/C=C1/C(=O)OCC1O (configuration not stated)	HCT-15 colon	growth	61.9
c1ccc(C(=NNc2nc3ccccc3o2)c2ccccn2)nc1	HCT-15 colon	growth	16.8
CC(C)C(=O)c1ccc(Cl)s1	HCT-15 colon	growth	97.5
CCCCCCCCc1ccc(OCCOCC[N+](C)(C)CC)cc1 (tested in a mixture with another compound)	HCT-15 colon	growth	98.4
COC1=C(OC)C(=O)c2ccccc2C1=O	HCT-15 colon	growth	101
CSc1nc(N)n2nccc2n1	HCT-15 colon	growth	108
Oc1ccc(CN(Cc2ccc(C(F)(F)F)cc2)Cc2ccc(O)c3ncccc23)c2cccnc12	HCT-15 colon	growth	20.5
COC(=O)C1CC(=O)N(C(=O)Nc2ccc(Cl)cc2Cl)C1 (configuration not stated)	HCT-15 colon	growth	99
O=C(/C=C1\C(=O)N(Cc2ccccc2)c2ccccc21)c1ccc(OCCN2CCCCC2)cc1	HCT-15 colon	growth	-49.9
O=C(Nc1ccc(-n2cc(-c3ccncc3)c(-c3ccc(Cl)c(O)c3)n2)cc1)c1ccc(Cl)c(C(F)(F)F)c1	HCT-15 colon	growth	-28
COc1cc(OC)c(/C=C/c2ccc3ccccc3[n+]2C)c(OC)c1	HCT-15 colon	growth	77.5
CCOc1nc(-c2ccccc2)cc2c(O)c(C(=O)N/N=C/c3ccccc3O)[nH]c(=O)c12	HCT-15 colon	growth	94
O=C(Nc1cccc(Cn2c(=O)[nH]c3ccc(Oc4ncccn4)cc3c2=O)c1)c1cc(Cl)cc(Cl)c1	HCT-15 colon	growth	77.3
N#Cc1c2ncccc2c2nnc3cc(Cl)c(Cl)cc3n12	HCT-15 colon	growth	82.9
O=C1c2ccccc2CCc2ccccc21	HCT-15 colon	growth	105
CCCCCSc1ccc2nc(NC(=O)OCCC)sc2c1	HCT-15 colon	growth	26.1
CCC(CCCN1C(=O)c2ccccc2C1=O)Nc1cc(OC)cc2cccnc12 (configuration not stated)	HCT-15 colon	growth	92.4
CCCCCCCCC(=O)Nc1ccc(O)cc1	HCT-15 colon	growth	94.6
CCCCCCCCCCCCCCCCCC(=O)Nc1ccc(O)cc1	HCT-15 colon	growth	110
O=c1c(N=Nc2nccs2)c(-c2ccccc2)[nH]n1-c1nc(-c2ccccc2)cs1	HCT-15 colon	growth	19.5
O=C(/C=C\c1ccc(NCc2ccc(C(=O)O)cc2)cc1)CCl	HCT-15 colon	growth	72.4
O=C(O)CC1Cc2ccccc2C1C(=O)O (configuration not stated)	HCT-15 colon	growth	101

---

Tested on: M14 melanoma
method: NCI-60 one-dose screen, 48 h
condition.info: 10 µM unless noted
Compounds without any hit were thinned out: in the full panel of roughly 83,000, 20% have a hit. Calls of active or inactive are those of the source. Rule for the calls: active = growth percent below 10; inactive = the rest.
Possible outcomes: 1 (yes) (active), 0 (no) (inactive)

molecule	answer.label
COc1ccc(C2=C/C(=C\c3ccc(Cl)cc3)C(=O)NN2C(=S)NN)cc1	0 (no)
CCc1c(C)c2ccc(OCC(=O)N=Nc3c(O)[nH]c4ccccc34)c(C)c2oc1=O	1 (yes)
Cc1ccccc1-n1c(C)nc2cc(NC(=O)c3ccc(Cl)cc3)ccc2c1=O	0 (no)
CC1=NN(c2cccc(Cl)c2)C(=O)/C1=C\c1cn(-c2nc(N3CCOCC3)nc(N3CCOCC3)n2)c2ccccc12	0 (no)
Cc1ccc(C(=O)C(Br)C(Br)c2ccccc2)cc1 (centres undefined)	0 (no)
COc1cc(-c2c3c(cn2CCN2CCCCC2)-c2oncc2CC3)cc(OC)c1OC	0 (no)
O=C1/C(=C\c2cn(-c3nc(N4CCOCC4)nc(N4CCOCC4)n3)c3ccccc23)c2ccccc2N1c1c(Cl)cccc1Cl	0 (no)
C=C[C@]1(C)C=C2C(=O)[C@@]3(O)OC[C@@]4(CCCC(C)(C)C43O)C2(O)C(O)C1 (some centres undefined)	1 (yes)
O=C(NCCCl)Nc1nccnc1OCc1ccc(F)cc1	0 (no)

---

Tested on: SK-OV-3 ovarian
method: NCI-60 one-dose screen, 48 h
condition.info: 10 µM unless noted
About 83,000 compounds went through this panel and 20% of them were active in at least one assay; those are over-represented in the sample as a whole. Active and inactive are the calls of the source. Rule for the calls: active = growth percent below 10; inactive = the rest.
Possible outcomes: TRUE (active), FALSE (inactive)

compound	answer.label
COc1ccc2cnc(N)c(C#Cc3cc(C(=O)Nc4ccc(CN5CCN(C)CC5)c(C(F)(F)F)c4)cnc3C)c2c1	FALSE
CCOC(=O)c1cc(-c2ccc(OC)cc2)[nH]c1NNC(=O)CCOC	FALSE
CCOP1(=O)CC(C)=C(Cl)C(P(=O)(O)O)C1 (stereo not given)	FALSE
Oc1ccccc1\C=N/N=C/C=C/c1ccccc1	FALSE
Cc1ccc(C(C)C)c(OCc2ccc(C(=O)N/N=C/c3cccc(O)c3O)cc2)c1	FALSE
C/C=C(/C)C(=O)OC1C=C(CO)C(=O)C(OC(=O)C2(C)OC2C)C1C(C)C (stereo not given)	FALSE
CCCCCCCCCCCCCCCCCCOP(=O)(O)O	FALSE
Cc1[nH]n(C(=S)Nc2nc3cc(Cl)c(F)cc3s2)c(=O)c1N=Nc1ccc(F)c(Cl)c1	FALSE
CCC(C)(C)c1ccc(OCCCCCCN2CCN(c3ccc(C)c(Cl)c3)CC2)cc1	FALSE
C=CCNCCC#N	FALSE
O=C(N/N=C\c1ccc(Cl)cc1)C(=O)N/N=C\c1ccc(Cl)cc1	FALSE
[2H]c1nc(=Nc2cc(NC(=O)C=C)c(N(C)CCN(C)C)cc2OC)[nH]c(-c2cn(C([2H])([2H])[2H])c3ccccc23)c1[2H]	TRUE
C=CCSc1nnc(COc2ccc3c(C)c(Cc4ccccc4)c(=O)oc3c2C)o1	FALSE
COC(=O)[C@H](Cc1cn(C)cn1)NC(=O)[C@@H](NC(=O)Nc1cc(C(F)(F)F)cc(C(F)(F)F)c1)C(C)(C)C	TRUE
O=C(CN1CCN(c2cccc(Cl)c2)CC1)N1CCN(c2nnc(-c3ccc(Cl)cc3)c(-c3ccc(Cl)cc3)n2)CC1	FALSE
COc1cc(-c2nn(-c3ccc(NC(=O)c4cc(Cl)cc(Cl)c4)cc3)cc2-c2ccncc2)ccc1Cl	FALSE
Cc1nnc(-c2cc3c(ccc4ccccc43)oc2=O)c2cn(-c3ccc(Cl)cc3)nc12	FALSE
Cn1cnc2nc[nH]c2c1=S	FALSE
CC(C)(C)OC(=O)N1C/C(=C\c2ccccc2)C(=O)/C(=C/c2ccccc2)C1	FALSE
N=C(N)c1ccc(-c2ccc(-c3ccc(F)cc3)s2)cc1	TRUE
